# credit: patent US20240254119A1

Target Under Test: BCRP (BCRP-MDCKII monolayer) (Homo sapiens, UniProt Q9UNQ0)
Construct: host or cells: MDCKII (canine kidney) cells
Sequence (Q9UNQ0 whole entry): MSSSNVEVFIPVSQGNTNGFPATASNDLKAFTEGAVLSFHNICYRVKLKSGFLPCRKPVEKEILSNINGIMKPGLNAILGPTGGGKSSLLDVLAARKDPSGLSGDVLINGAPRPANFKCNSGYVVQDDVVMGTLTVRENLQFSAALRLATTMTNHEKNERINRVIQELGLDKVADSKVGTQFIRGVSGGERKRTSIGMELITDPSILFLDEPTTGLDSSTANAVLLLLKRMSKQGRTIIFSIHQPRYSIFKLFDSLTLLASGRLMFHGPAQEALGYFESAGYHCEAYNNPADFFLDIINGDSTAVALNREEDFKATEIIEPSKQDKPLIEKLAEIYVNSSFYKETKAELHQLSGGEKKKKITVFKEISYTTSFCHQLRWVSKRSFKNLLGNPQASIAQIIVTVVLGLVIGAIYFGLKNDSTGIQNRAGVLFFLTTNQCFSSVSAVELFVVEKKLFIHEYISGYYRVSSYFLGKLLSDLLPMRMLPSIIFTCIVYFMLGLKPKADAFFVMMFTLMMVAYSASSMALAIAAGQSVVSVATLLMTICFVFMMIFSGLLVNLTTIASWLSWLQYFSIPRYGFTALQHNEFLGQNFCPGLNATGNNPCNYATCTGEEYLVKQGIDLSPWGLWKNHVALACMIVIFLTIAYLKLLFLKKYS
Protocol Description: MDCKII-BCRP bidirectional transport assay
Type: in vitro ADME
Reported MDCK-BCRP: Efflux Ratio values for the following compounds.
Measured Quantity: MDCK-BCRP: Efflux Ratio

Compound	Measured Quantity	Experimental Result
Cc1ccc(-c2noc(CC(O)C(F)F)n2)cc1NC(=O)c1cnc2ccccn12 (stereo not shown) [Compound I-122]	MDCK-BCRP: Efflux Ratio	29.4
Cc1ccc(-c2noc(C(C)NS(C)(=O)=O)n2)cc1NC(=O)c1cnc2ccccn12 (single isomer, unassigned) [Compound I-238]	MDCK-BCRP: Efflux Ratio	22.7
Cc1ccc(-c2noc(C3CCN3C(=O)OC(C)(C)C)n2)cc1NC(=O)c1cnc2ccccn12 (racemic)	MDCK-BCRP: Efflux Ratio	3.28
Cc1ccc(-c2noc(CCO)n2)cc1NC(=O)c1cnc2ccccn12	MDCK-BCRP: Efflux Ratio	23.2
Cc1ccc(-c2noc(C[C@@H](C)O)n2)cc1NC(=O)c1cnc2cc(C(F)F)ccn12	MDCK-BCRP: Efflux Ratio	25.3
Cc1ccc(-c2noc(CC3CC3(F)F)n2)cc1NC(=O)c1cnc2ccccn12 (stereo not shown)	MDCK-BCRP: Efflux Ratio	1.6
Cc1ccc(-c2noc(CC3CC(F)(F)C3)n2)cc1NC(=O)c1cnc2ccccn12	MDCK-BCRP: Efflux Ratio	1.14
